experiment: Plasma pharmacokinetics after a single 1 mg/kg dose; type: in vivo, C57BL/6J mice; details: C57BL/6J, mouse, ip, 1 mg/kg
observable: AUC (ng·h/mL)
// note: answer is a bare numeric in ng·h/mL

Prompt line: Report AUC for CC(=O)N[C@@H](Cc1ccccc1)C(=O)N[C@H]1CCCNC(=O)[C@H](CCCNC(=N)N)NC(=O)[C@H](Cc2c[nH]c3ccccc23)NC(=O)[C@@H](CC2CCCCC2)NC(=O)[C@@H]2CCCN2C1=O [PMX53, Ac-Phe-[Orn-Pro-dCha-Trp-Arg]] please.
Response line: 1800

---

assay: Spinal cord pharmacokinetics after a single 1 mg/kg dose; format: in vivo, C57BL/6J mice; conditions: C57BL/6J, mouse, spinal cord, ip, 1 mg/kg
observable: MRT last (min)
Use min as the unit, but write only the number.

Prompt line: What value of MRT last has been reported for the following compound? CC(=O)N[C@@H](Cc1ccccc1)C(=O)N[C@H]1CCCNC(=O)[C@H](CCCNC(=N)N)NC(=O)[C@H](Cc2c[nH]c3ccccc23)NC(=O)[C@@H](CC2CCCCC2)NC(=O)[C@@H]2CCCN2C1=O [PMX53, Ac-Phe-[Orn-Pro-dCha-Trp-Arg]]
Response line: 37.2

---

test: Brain pharmacokinetics after a single 1 mg/kg dose; assay type: in vivo, C57BL/6J mice; details: C57BL/6J, mouse, brain, sc, 1 mg/kg
observable: Cmax (ng/g)
// return numeric value only (unit: ng/g, not printed)

Prompt line: Looking for the measured Cmax of CC(=O)N[C@@H](Cc1ccccc1)C(=O)N[C@H]1CCCNC(=O)[C@H](CCCNC(=N)N)NC(=O)[C@H](Cc2c[nH]c3ccccc23)NC(=O)[C@@H](CC2CCCCC2)NC(=O)[C@@H]2CCCN2C1=O [PMX53, Ac-Phe-[Orn-Pro-dCha-Trp-Arg]] , can you help?
Response line: 120

---

assay: Plasma pharmacokinetics after a single 1 mg/kg dose; type: in vivo, C57BL/6J mice; conditions: C57BL/6J, mouse, po, 1 mg/kg
observable: k el (s⁻¹)
Give your result in s⁻¹ as a bare value.

Prompt line: Look up k el for this compound: CC(=O)N[C@@H](Cc1ccccc1)C(=O)N[C@H]1CCCNC(=O)[C@H](CCCNC(=N)N)NC(=O)[C@H](Cc2c[nH]c3ccccc23)NC(=O)[C@@H](CC2CCCCC2)NC(=O)[C@@H]2CCCN2C1=O [PMX53, Ac-Phe-[Orn-Pro-dCha-Trp-Arg]]
Response line: 0.000711

---

experiment: Plasma pharmacokinetics after a single 1 mg/kg dose; type: in vivo, C57BL/6J mice; details: C57BL/6J, mouse, sc, 1 mg/kg
observable: k el (s⁻¹)
Provide only the numeric value, understood in s⁻¹.

Prompt line: Requested field: k el. Item: CC(=O)N[C@@H](Cc1ccccc1)C(=O)N[C@H]1CCCNC(=O)[C@H](CCCNC(=N)N)NC(=O)[C@H](Cc2c[nH]c3ccccc23)NC(=O)[C@@H](CC2CCCCC2)NC(=O)[C@@H]2CCCN2C1=O [PMX53, Ac-Phe-[Orn-Pro-dCha-Trp-Arg]]
Response line: 0.000592

---

test: Plasma pharmacokinetics after a single 1 mg/kg dose; type: in vivo, C57BL/6J mice; details: C57BL/6J, mouse, iv, 1 mg/kg
observable: AUC (ng·h/mL)
Write the answer as a number in ng·h/mL, unit excluded.

Prompt line: Recorded AUC for CC(=O)N[C@@H](Cc1ccccc1)C(=O)N[C@H]1CCCNC(=O)[C@H](CCCNC(=N)N)NC(=O)[C@H](Cc2c[nH]c3ccccc23)NC(=O)[C@@H](CC2CCCCC2)NC(=O)[C@@H]2CCCN2C1=O [PMX53, Ac-Phe-[Orn-Pro-dCha-Trp-Arg]] , please?
Response line: 2510
